# ASSAYED_TARGET: human IL-12Rβ2-huFc-his (R&D system), biotinylated (human) (UniProt Q99665)
# Sequence (Q99665 24-622 limits assumed): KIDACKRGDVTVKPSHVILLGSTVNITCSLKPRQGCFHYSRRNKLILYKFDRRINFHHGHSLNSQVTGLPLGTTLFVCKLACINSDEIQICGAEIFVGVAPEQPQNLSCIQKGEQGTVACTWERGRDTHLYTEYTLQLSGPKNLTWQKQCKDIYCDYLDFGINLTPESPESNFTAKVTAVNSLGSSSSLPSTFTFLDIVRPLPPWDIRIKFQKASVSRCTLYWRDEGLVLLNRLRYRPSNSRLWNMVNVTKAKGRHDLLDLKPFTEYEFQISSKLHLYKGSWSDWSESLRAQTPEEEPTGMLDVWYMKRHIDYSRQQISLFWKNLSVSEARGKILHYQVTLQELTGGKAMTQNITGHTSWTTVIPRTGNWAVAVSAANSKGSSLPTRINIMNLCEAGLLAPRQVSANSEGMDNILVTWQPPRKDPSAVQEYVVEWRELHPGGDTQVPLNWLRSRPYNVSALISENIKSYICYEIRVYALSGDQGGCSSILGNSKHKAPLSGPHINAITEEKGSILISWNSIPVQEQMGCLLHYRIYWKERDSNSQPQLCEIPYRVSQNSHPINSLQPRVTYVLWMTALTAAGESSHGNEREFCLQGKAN
# EXPERIMENTAL_PROTOCOL: ELISA, periplasmic extract
MEASURED_PROPERTY: OD450 nm

[[record]]
binder = "VHH277B2 (VHH) VHH: QVQLVESGGGLVQLGDSLRLSCAASGRGFSSWTMAWFRQALGKRREFVAAITATGARTCSAESEGRFTISRDNAKNMVFLQMNSLKAEDTAVYYCAATEIAGWDPGMGDKYPYWGQGTQVTVSS"
measured_property = "OD450 nm"
reported_value = 0.137

[[record]]
binder = "VHH229B2 (VHH) VHH: QVQLVESGGGLVQAGGSLRLSCAASGRTFSSYAMGWFRQAPGKEREFVSAISWNGGSRYYVESVEGRFTISRDNAKNTVYLQMNSLKPEDTAVYYCAASRIYTNYVARSYEYDDWGQGTQVTVSS"
measured_property = "OD450 nm"
reported_value = 0.138

[[record]]
binder = "VHH211B2 (VHH) VHH: QVQLVESGGGLVQAGNSLRLSCAASGRTFSSYVVGWFRQAPGKEREFVGRISWSGARTYYADSVKGRFTISRDNAKNTVYLQMNSLKPEDTAVYYCAADLKWEVLLSEHFEYWGQGTQVTVSS"
measured_property = "OD450 nm"
reported_value = 0.227

[[record]]
binder = "VHH216B2 (VHH) VHH: QVQLVESGGGLVQPGGSLRLSCATSEHTFGTYRMGWFRQAPGKEREFVAGISWTGQTTYYAASVKGRFAISKDNAKNTVYLQMNTLKSDDTAVYYCAVETNNLGRWDRPSEYDYWGQGTQVTVSS"
measured_property = "OD450 nm"
reported_value = 0.586

[[record]]
binder = "VHH241B2 (VHH) VHH: QVQLVESGGGLVQLGDSLRLSCAASGRGFSSWTMAWFRQALGKRREFVAAITATGARTCSAESEGRFTISRDNAKNMVFLQMNSLKAEDTAVYYCAATGIASWDPGMADKYTYWGQGTQVTVSS"
measured_property = "OD450 nm"
reported_value = 0.139


The measured values listed here are drawn from patent US20250019450A1.
